Biological target: T1, NativeRPtag(large)_with_Tags_and_Cys (Thermoanaerobacter tengcongensis)
T1 construct: Unlabeled in anisotropy assays; coupled through the engineered N-terminal Cys to SulfoLink agarose or maleimide plates in column, pull-down and ELISA assays
T1 chain: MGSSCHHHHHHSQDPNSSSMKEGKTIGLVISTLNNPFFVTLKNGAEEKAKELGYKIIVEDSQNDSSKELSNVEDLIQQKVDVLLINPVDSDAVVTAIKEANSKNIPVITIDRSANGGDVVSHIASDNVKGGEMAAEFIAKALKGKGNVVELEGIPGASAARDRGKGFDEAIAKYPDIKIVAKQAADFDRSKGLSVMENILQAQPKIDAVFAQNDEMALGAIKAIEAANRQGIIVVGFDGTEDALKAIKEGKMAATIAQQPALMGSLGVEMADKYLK
Experiment: fluorescence anisotropy, association kinetics
No end group written: not given here. *: point of attachment. RhodamineB = CCN(CC)c1ccc2c(-c3ccccc3C(=O)*)c3ccc(=[N+](CC)CC)cc-3oc2c1
Reported metric: kr (S* to S)
Just the number plus its unit, please.

Given RhodamineB-KIPNFIPAELKLITKENVQ [RPtag(small) Nd2] , state its recorded kr (S* to S). 0.086 min⁻¹

Given RhodamineB-GEKIPNFIPAEAKLITKENVQ [RPtag(small) l12a] , state its recorded kr (S* to S). 0.081 min⁻¹

Given RhodamineB-GEKIPNFIPAELKLITKENVA (built here from the native peptide with the stated change) [RPtag(small) q21a] , state its recorded kr (S* to S). 0.11 min⁻¹

Given RhodamineB-KIPNFIPAELKLITKA [RPtag(small) Nd2, Cd3, e18a] , state its recorded kr (S* to S). 0.26 min⁻¹

Given RhodamineB-GEKIPNFIPAELKLITKENVQ (Synthetic peptide) [native RPtag(small)] , state its recorded kr (S* to S). 0.056 min⁻¹
